Test system: MCF7
assay-explanation: Cytotoxicity against human MCF7 cells assessed as reduction in cell viability after 48 hrs by MTT assay
Type: functional, cell-based
conditions-used: MCF7, 48 h
outcome-measure: IC50 (µM)
All answers are understood in µM, so give the number only.

C[C@@H]1C[C@H]([C@H](O)C(C)(C)O)O[C@H]2O[C@H](O)[C@@]3(C)[C@@H]4CC[C@H]5C(C)(C)[C@@H](O[C@@H]6OC[C@@H](O)[C@H](O)[C@H]6O)CC[C@@]56C[C@@]46CC[C@]3(C)[C@H]21
43.2

Consider the additional molecule presented here.
MCF7 data for C[C@@H]1C[C@H]([C@H](O)C(C)(C)O)O[C@H]2OC(=O)[C@@]3(C)[C@@H]4CC[C@H]5C(C)(C)C(=O)CC[C@@]56C[C@@]46CC[C@]3(C)[C@H]21 ; its IC50: 24.8
